systemName: CHIP (Homo sapiens)
Construct: N-term truncated CHIP (also known as STUB1, Uniprot ID: Q9UNE7, residues 23-303); made in house; host or cells: E. coli BL21 CodonPlus
Sequence (Q9UNE7 23-303): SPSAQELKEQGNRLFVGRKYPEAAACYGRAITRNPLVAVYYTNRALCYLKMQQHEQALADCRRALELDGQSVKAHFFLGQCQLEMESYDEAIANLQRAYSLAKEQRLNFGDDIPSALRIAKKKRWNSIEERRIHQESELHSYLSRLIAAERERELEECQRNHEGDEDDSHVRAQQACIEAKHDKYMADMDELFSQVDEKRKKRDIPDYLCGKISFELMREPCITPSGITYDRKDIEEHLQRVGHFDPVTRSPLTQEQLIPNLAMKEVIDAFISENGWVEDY
protocolDetails: Naive Library Presenter Screening (phage, NGS), CHIP
Type: binding
protocolConditions: CHIP clusters (C83, C84); Blank = Media only, second column
Numbered stars: 1 amine (or outer) side, 2 acyl side, 3 side chain; on linkers, the order of the positions; unused ones are H or OH. Bridge positions count the residues as written; N and C are the ends. Ends that are not written are not given here. Phenylene(1,4-NHCOCH2)2 = O=C(C[*:1])Nc1ccc(NC(=O)C[*:2])cc1
experimentalReadout: interaction data, BLANK

[in] Lab note: need interaction data, BLANK with CHIP (Homo sapiens) for entry DPAQYNCYFAANICTVD (DPAQYNCYFAANICTVD-NH2; linker 7-14 via Phenylene(1,4-NHCOCH2)2 (inferred)) , please look it up.
[out] 0

[in] Repeat with DPALWNCQYAAVMCTQL (linker 7-14 via Phenylene(1,4-NHCOCH2)2 (inferred); not fully specified (C-terminus))
[out] 0

[in] # repeat for DPAFWRCQFAAATCEHT (linker 7-14 via Phenylene(1,4-NHCOCH2)2 (inferred))
[out] 0

[in] Then this sequence: DPAFWQCQFAAATCAHY (linker 7-14 via Phenylene(1,4-NHCOCH2)2 (inferred))
[out] 0

[in] Okay, and DPAFFECVRAASICMVD (linker 7-14 via Phenylene(1,4-NHCOCH2)2 (inferred)) ?
[out] 0

[in] Next: DPAVRWCAAAAAICMVD (linker 7-14 via Phenylene(1,4-NHCOCH2)2 (inferred); not fully specified (C-terminus))
[out] 0

[in] Now consider DPAFDACQFAAAMCDHQ (linker 7-14 via Phenylene(1,4-NHCOCH2)2 (inferred)) and answer again.
[out] 0
